Tested on: human prostate adenocarcinoma PC-3 xenografts (GRPR+)
Parameters: species or system SCID mice
SETTINGS: SCID, mouse, in vivo, 4 h
Non-standard residues stand in square brackets, D forms with d. Residues, ends and D or L forms follow the SMILES beside them. *: point of attachment. DOTA = O=C(O)CN1CCN(CC(=O)O)CCN(CC(=O)*)CCN(CC(=O)O)CC1; Nle = CCCC[C@H](N)C(=O)O; AEEA = NCCOCCOCC(=O)O; βAla = NCCC(=O)O
MEASUREMENT LABEL: uptake in PC-3 tumor (% ID/g)

[[record]]
compound = "CSCC[C@H](NC(=O)[C@H](CC(C)C)NC(=O)[C@H](Cc1c[nH]cn1)NC(=O)CNC(=O)[C@@H](NC(=O)[C@H](C)NC(=O)[C@H](Cc1c[nH]c2ccccc12)NC(=O)[C@H](Cc1c[nH]cn1)NC(=O)[C@H](CC(N)=O)NC(=O)CNC(=O)C(CNCCN)CNCCN)C(C)C)C(N)=O [[^99mTc]SAR-NC1, metal not drawn]"
measurement_label = "uptake in PC-3 tumor"
measurement_unit = "% ID/g"
measured_result = 6.51

[[record]]
compound = "CCCC[C@H](NC(=O)[C@H](Cc1ccccc1)NC(=O)[C@H](Cc1c[nH]cn1)NC(=O)CCNC(=O)[C@@H](NC(=O)[C@H](C)NC(=O)[C@H](Cc1c[nH]c2ccccc12)NC(=O)[C@H](CCC(N)=O)NC(=O)[C@@H](Cc1ccc(O)cc1)NC(=O)COCCOCCNC(=O)CN1CCN(CC(=O)O)CCN(CC(=O)O)CCN(CC(=O)O)CC1)C(C)C)C(N)=O [[^111In]PanSarbesin 1, metal not drawn] ({DOTA-AEEA}-[dY]QWAV[βAla]HF[Nle]-NH2)"
measurement_label = "uptake in PC-3 tumor"
measurement_unit = "% ID/g"
measured_result = 3.75

[[record]]
compound = "CCCC[C@H](NC(=O)[C@H](CC(C)C)NC(=O)[C@H](Cc1c[nH]cn1)NC(=O)CNC(=O)[C@@H](NC(=O)[C@H](C)NC(=O)[C@H](Cc1c[nH]c2ccccc12)NC(=O)[C@H](CCC(N)=O)NC(=O)[C@H](CC(N)=O)NC(=O)CNC(=O)[C@H](Cc1ccc(O)cc1)NC(=O)[C@H](CCCN=C(N)N)NC(=O)[C@H](CCC(N)=O)NC(=O)[C@@H]1CCCN1C(=O)C(CNCCN)CNCCN)C(C)C)C(N)=O [[^99mTc]Demobesin 4, metal not drawn]"
measurement_label = "uptake in PC-3 tumor"
measurement_unit = "% ID/g"
measured_result = 11.26

[[record]]
compound = "CCNC(=O)[C@H](CC(C)C)NC(=O)[C@H](Cc1c[nH]cn1)NC(=O)CNC(=O)[C@@H](NC(=O)[C@H](C)NC(=O)[C@H](Cc1c[nH]c2ccccc12)NC(=O)[C@H](CCC(N)=O)NC(=O)[C@@H](Cc1ccccc1)NC(=O)COCC(=O)Nc1ccc(CC(CNCCN)CNCCN)cc1)C(C)C [[^99mTc]Demobesin 1, metal not drawn]"
measurement_label = "uptake in PC-3 tumor"
measurement_unit = "% ID/g"
measured_result = 12.73


Numbers sourced from patent US11612667B2.
